biological target: SARS-CoV-2 RBD (receptor-binding domain of S, residues 331-524) (SARS-CoV-2, UniProt P0DTC2); assay: SPR

- Binder: "C105 IgG (antibody, V domains shown) VH: QVQLVESGGGLIQPGGSLRLSCAASGFTVSSNYMSWVRQAPGKGLEWVSVIYSGGSTYYADSVKGRFTISRDNSKNTLYLQMNSLRAEDTAVYYCARGEGWELPYDYWGQGTLVTVSS VL: QSALTQPPSASGSPGQSVTISCTGTSSDVGGYKYVSWYQQHPGKAPKLMIYEVSKRPSGVPDRFSGSKSGNTASLTVSGLQAEDEADYYCSSYEGSNNFVVFGGGTKLTVL"
  binding result: "binds"
- Binder: "C104 IgG (antibody, V domains shown) VH: QVQLQQWGAGLLKPSETLSLSCAVYGGSLSGYYWSWIRQPPGKGLEWIGEINHFGSTGYNPSLKSRVTISVDTSKSQFSVKLSSVTAADTAVYYCARKPLLYSNLSPGAFDIWGQGTMVTVSS VL: EIVLTQSPGTVSLSPGERATLSCWASQSVSASYLAWYQQKPGQAPRLLIYGASSRATGIPDRFSGSGSGTDFTLTISRLEPEDFAVYYCQQYGTTPRTFGGGTKVEIK"
  binding result: "binds"
- Binder: "C110 IgG (antibody, V domains shown) VH: QVQLQQSGAEVKKPGESLKISCKGSGYSFTSYWIGWVRQMPGKGLEWMGIIYPGDSDTRYSPSFQGQVTISADKSISTAYMQWSSLKASDTAMYYCARSFRDDPRIAVAGPADAFDIWGQGTMVTVSS VL: DIQMTQSPSTLSASVGDRVTITCRASQSISYWLAWYQQKPGKAPKLLIYQASSLESGVPSRFSGSESGTEFTLTISSLQPDDFATYYCQQYNSYPYTFGQGTKLEIK"
  binding result: "binds"
